Sourced from patent EP0449699A2

- Test system: récepteurs surrénaliens de l'angiotensine II
- assay-comment: Displacement of radioligand [125I]-SIAII specifically bound to adrenal angiotensin II receptors (rat adrenal homogenate)
- Type: binding
- condition-set: competitor 1E-5 M, 60 min, 25°C, 10 µM
measurement-type: % de déplacement du ligand marqué (%)

Before answering, review these 10 worked examples.
- mol: "CCCc1nn(C)c(OCC(=O)OC)c1Cc1ccc(NC(=O)c2c(Cl)ccc(Cl)c2C(=O)O)cc1"
  measurement-type: "% de déplacement du ligand marqué"
  quantitative-result: 93
- mol: "CCCc1nn(C)c(OCC(=O)OCC)c1Cc1ccc(-c2ccccc2-c2nnn[nH]2)cc1"
  measurement-type: "% de déplacement du ligand marqué"
  quantitative-result: 67
- mol: "CCCc1nn(CC(F)(F)F)c(OCC(=O)OCC)c1Cc1ccc(-c2ccccc2-c2nn[nH]n2)cc1"
  measurement-type: "% de déplacement du ligand marqué"
  quantitative-result: 65
- mol: "CCCc1nn(C)c(CO)c1Cc1ccc(NC(=O)c2ccccc2S(=O)(=O)O)cc1"
  measurement-type: "% de déplacement du ligand marqué"
  quantitative-result: 80
- mol: "CCCc1nn(C)c(OCC(=O)O)c1Cc1ccc(NC(=O)c2ccccc2S(=O)(=O)O)cc1"
  measurement-type: "% de déplacement du ligand marqué"
  quantitative-result: 85
- mol: "CCCc1nn(CC(F)(F)F)c(OCCO)c1Cc1ccc(-c2ccccc2-c2nn[nH]n2)cc1"
  measurement-type: "% de déplacement du ligand marqué"
  quantitative-result: 75
- mol: "CCCc1nn(C)c(OCCO)c1Cc1ccc(-c2ccccc2C(=O)O)cc1"
  measurement-type: "% de déplacement du ligand marqué"
  quantitative-result: 63
- mol: "CCCCc1nn(C)c(OCC(=O)OCC)c1Cc1ccc(NC(=O)c2ccccc2C(=O)O)cc1"
  measurement-type: "% de déplacement du ligand marqué"
  quantitative-result: 92
- mol: "CCCc1nn(C)c(OCCO)c1Cc1ccc(-c2ccsc2C(=O)O)cc1"
  measurement-type: "% de déplacement du ligand marqué"
  quantitative-result: 53
- mol: "CCCc1nn(CC(F)(F)F)c(OC(=O)N(C)C)c1Cc1ccc(NC(=O)c2ccccc2S(=O)(=O)O)cc1"
  measurement-type: "% de déplacement du ligand marqué"
  quantitative-result: 84

P: CCCc1nn(C)c(COC)c1Cc1ccc(-c2ccccc2-c2nnn[nH]2)cc1
Q: CCCc1nn(CC(=O)OCC)c(OCC(=O)OCC)c1Cc1ccc(NC(=O)c2c(Cl)ccc(Cl)c2C(=O)O)cc1
Input line: Parameter metric = % de déplacement du ligand marqué. Return the lower-valued option from P and Q . Please indicate the selected item by its label.
Output line: P
(P: 61%, Q: 96%)
